Assay: NCI Yeast Anticancer Drug Screen. Data for the sgs1 mgt1 strain (AID 161);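 note: 0% = growth of cultures given vehicle only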
Conditions: S. cerevisiae sgs1 mgt1 strain, at 5.0 µM (retest, dose inferred, filed as 0.5), stronger effect = higher value
This is part of a sample that, as a whole, favours compounds with a hit. Of some 79,000 tested, about 15% had one in any assay.
Note to self: values exactly at 10% are y. So growth inhibition at or above 10% is y, below is n.

Here are 5 molecules together with their reported answers.
MOLECULE	CATEGORY
COc1cc(C(c2cc3c(cc2O)OCO3)N2CCOCC2)cc(OC)c1OC (centres undefined)	n
CC(=O)OC1C(C)OC(OC(=O)C2CCC3C(C2)OC2(CC(OC(=O)/C=C/c4ccccc4)C(C)CO2)C32CO2)C(OC2OC(C)C(O)C(OC(C)=O)C2O)C1O (centres undefined)	y
CCCNC(=O)OCc1ccc(NCCN(CC)CC)c2c(=O)c3ccccc3sc12	n
Cc1ccc(C2SCc3nc4ccccc4n32)cc1 (centres undefined)	n
S=C(N/N=C(/c1ccccc1)c1ccccn1)Nc1cccc(Cl)c1	y

For this molecule, is measured growth inhibition 10% or higher? CCOC(=O)c1cc2c(nc1N)/C(=C/c1ccccc1)CCCC2
y

For this molecule, is measured growth inhibition 10% or higher? Cc1ccc2c(ccc3c[n+]4c5ccccc5ccc4n32)c1
y

For this molecule, is measured growth inhibition 10% or higher? C[CH2][Ge]([CH2]C)([CH2]C)[O]C(=O)C([O][Ge]([CH2]C)([CH2]C)[CH2]C)c1ccccc1 (centres undefined)
y

For this molecule, is measured growth inhibition 10% or higher? CCN(CC)CCNc1ccc2nnn3c4ccc([N+](=O)[O-])cc4c(=O)c1c23
n

====

Assay: NCI Yeast Anticancer Drug Screen. Data for the bub3 strain (AID 167)
Conditions: S. cerevisiae bub3 mutant strain, at 5.0 µM (retest, dose inferred, filed as 0.5)
Description: Growth inhibition of yeast strains with defined genetic alterations is measured as a screen for potential anti-cancer activity. Selected strains with alterations in DNA damage repair or cell cycle control were exposed to compounds and growth inhibition was measured relative to vehicle treated controls. The strain used in this assay is bub3
The panel holds about 79,000 compounds, 15% with a hit somewhere; the sample as a whole holds those more often. Active and inactive are the calls of the source. Cut-off read from the data, not from the text of the source: active = growth inhibition above about 70%; inactive = the rest.
Valid outcomes are listed here; reply with one: active, inactive

Here are 3 molecules together with their reported answers.
MOLECULE	CATEGORY
Cc1ccc(N2C(=O)C(C)SC23C(=O)Nc2ccc(Cl)cc23)cc1 (centres undefined)	inactive
CC#Cc1cc2c(cc1O)CC[C@@H]1[C@@H]2CC[C@]2(C)[C@@H](O)CC[C@@H]12	inactive
CCCCCCCCC(C)c1ccccc1O (centres undefined)	inactive

Outcome? N#CSc1cc(SC#N)c2ccccc2c1N
inactive

Outcome? O=C(O)CC1(C(=O)O)CCCCC1
inactive

Outcome? CCN(CC)CC(C)(C)C(=O)/C=C/c1ccc(Cl)c(Cl)c1
inactive

Outcome? CC/C(=N\NS(=O)(=O)c1ccc(C)cc1)c1cccc(OC)c1
inactive

Outcome? CS(=O)(=O)c1nc(Cl)c(Cl)c(C#N)c1Cl
active

Outcome? CC[N+]1(C)CCC(O)(/C=C/c2ccccc2)C(C(=O)/C=C/c2ccccc2)C1 (centres undefined)
inactive

Outcome? CS(=O)(=O)c1snc(N)c1C#N
inactive

Outcome? CCN(CC)CCN1C(=O)c2c(c3c4cccc(Cl)c4n(C4OC(CO)C(OC)C(O)C4O)c3c3[nH]c4c(Cl)cccc4c23)C1=O (centres undefined)
inactive

Outcome? O=C1CCSC(=S)N1c1ccc(N=Nc2ccccc2)cc1
inactive

Outcome? O=C(O)/C=C/c1ccc([N+](=O)[O-])o1
inactive

====

Please respond with reported growth inhibition for every item in the list.
Experiment: NCI Yeast Anticancer Drug Screen. Data for the sgs1 mgt1 strain (AID 161);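 note: 0% = growth of cultures given vehicle only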
Conditions: S. cerevisiae sgs1 mgt1 strain, at 50.0 µM, stronger effect = higher value
Compounds without any hit were thinned out: in the full panel of roughly 79,000, 15% have a hit. The source made the active and inactive calls. No stated cut-off is given here; in the data, active means growth inhibition above about 70%; inactive means the rest.

Some compounds with recorded growth inhibition:
COMPOUND	growth inhibition
CCN(CC)CCOC(=O)Cc1cccc2c(=O)cc(-c3cccs3)oc12	-16.4% (inactive)
COc1ccccc1C1SC(c2ccccc2)(c2ccccc2)OC1=O (centres undefined)	80.2% (active)
O=c1[nH]ccc(CNC23CC4CC(CC(C4)C2)C3)c1O	61.9% (inactive)
CC(C)C(C)OC(=O)Nc1cccc(O)c1 (centres undefined)	18.1% (inactive)
Clc1ccc2c(NCCCCCCNc3ccnc4cc(Cl)ccc34)ccnc2c1	87.5% (active)
Cn1c(N)c(N=Nc2ccc(S(N)(=O)=O)cc2)c(=O)n(C)c1=O	-36.8% (inactive)
CCCCNC(=S)NC1C2CC3CC(C2)CC1C3 (centres undefined)	97.9% (active)
CCCNC(=O)OCc1ccc(NCCN(CC)CC)c2c(=O)c3ccccc3sc12	-8.85% (inactive)

I have 4 compounds here; please give me growth inhibition for each one.
1. O=C(NNc1nc(-c2ccccc2)cs1)Nc1ccccc1
2. COc1ccc(C2COc3cc(O)c(O)cc3C2)cc1 (centres undefined)
3. N#CSCc1c(Cl)cccc1Cl
4. Nc1nc(-c2ccccc2)c(-c2ccccc2)c(-c2nc(N)nc(-c3ccccc3)c2-c2ccccc2)n1

88.5% (active)
99.8% (active)
82.7% (active)
-16.9% (inactive)

I have 4 compounds here; please give me growth inhibition for each one.
1. N#C/C(=C\c1c(Cl)cccc1Cl)c1ccccc1
2. Oc1ccc(CNCc2ccccc2)c2cccnc12
3. Nc1ccc2c(SCCSc3c4ccccc4nc4cc(N)ccc34)c3ccccc3nc2c1
4. COc1ccc2c(C)cc(N/N=C/c3ccc(OC)c4ccccc34)nc2c1

42.5% (inactive)
96.2% (active)
52.6% (inactive)
91% (active)

I have 2 compounds here; please give me growth inhibition for each one.
1. COc1cc2c(cc1OC)C(Cl)C(c1ccc(F)cc1)=C2Cl (centres undefined)
2. O=C(O)c1ccc(/C=C2\COc3ccccc3C2=O)cc1

1. -5.35% (inactive)
2. 83.1% (active)

I have 3 compounds here; please give me growth inhibition for each one.
1. Cc1cc(O)c2c(c1)C(=O)c1c(c(O)cc(O)c1-c1c(O)cc(O)c3c1C(=O)c1cc(C)cc(O)c1C3=O)C2=O
2. Nc1nc(N)c2c(ccc3c2ccn3Cc2cccc([N+](=O)[O-])c2)n1
3. O=C(O)c1ccc2c3c(ncnc13)-c1ccccc1C2=O

69.8% (inactive)
54.4% (inactive)
61% (inactive)

I have 3 compounds here; please give me growth inhibition for each one.
1. CC(C)C(=O)NNc1ccccc1
2. Nc1ccc(SSc2ccc(N)cc2)cc1
3. COc1cccc(CC2N(S(=O)(=O)c3ccc(C)cc3)CCC23C(=O)Nc2ccccc23)c1OC (centres undefined)

1: 87.2% (active); 2: 57.6% (inactive); 3: 82.2% (active)

====

Assay: NCI Yeast Anticancer Drug Screen. Data for the sgs1 mgt1 strain (AID 161);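 note: 0% = growth of cultures given vehicle only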
Conditions: S. cerevisiae sgs1 mgt1 strain, at 50.0 µM (retest, dose inferred, filed as 5.0), stronger effect = higher value
This is part of a sample that, as a whole, favours compounds with a hit. Of some 79,000 tested, about 15% had one in any assay. Where a SMILES comes first, the peptide text is derived from it. The star is where a group is joined. Trt = c1ccc(C(c2ccccc2)(c2ccccc2)*)cc1; Cbz = O=C(OCc1ccccc1)*
Please respond with reported growth inhibition for every item in the list.
Give bare numbers, in %.

COMPOUND	ENDPOINT RESULT
COC(=O)C(CSC(c1ccccc1)(c1ccccc1)c1ccccc1)NC(=O)C(CC(N)=O)NC(=O)OCc1ccccc1 (stereo not drawn) (Cbz-Asn-Cys(Trt)-OMe; configuration not given here)	94
COc1cc2oc(-c3ccc(O)cc3O)c(CC=C(C)C)c(=O)c2c(O)c1/C=C/C(C)C	97

I have 6 compounds here; please give me growth inhibition for each one.
1. COc1ccc(C2C3=C(CCC(CN(C)C)C3=O)OC3=C2C(=O)C(CN(C)C)CC3)cc1 (centres undefined)
2. Cn1c2c(c3ccccc31)CCN1C[C@@H]3CCCC[C@H]3C[C@@H]21
3. O=C1CSC(c2cccc([N+](=O)[O-])c2)N1c1ccc(-c2ccc(-n3c(-c4ccccc4)nc4ccccc4c3=O)cc2)cc1 (centres undefined)
4. O=S(=O)(Nc1ccc2ccccc2c1)c1ccccc1
5. O=c1cc(-c2ccccc2)[nH]c2ccc(N3CCCC3)cc12
6. CCOC(=O)c1c(-c2ccccc2)csc1NC(=O)CBr

[-5, -1, 78, 99, 13, 99]

Dear colleague, I am looking for the recorded growth inhibition of the following compound: Cc1c(S(C)=O)[n+](=O)c2ccccc2n1[O-] (centres undefined)
92

====

Experiment: NCI Yeast Anticancer Drug Screen. Data for the mec2-1 strain (AID 157)
Details: S. cerevisiae mec2-1 strain, at 50.0 µM (retest, dose inferred, filed as 5.0), stronger effect = higher value
The panel holds about 79,000 compounds, 15% with a hit somewhere; the sample as a whole holds those more often.
Note to self: values exactly at 80% are true (1). So growth inhibition at or above 80% is true (1), below is false (0).

COMPOUND	CATEGORY
COC1CCC(O)C(CO)O1 (stereo unspecified)	true (1)
Cc1nc(N)sc1N=Nc1cccc(Cl)c1Cl	false (0)
CC1SC(=S)N(c2ccc(Cl)cc2)C1=O (stereo unspecified)	false (0)
COc1ccc(C(=O)Cc2nc3nnc(NC(=O)Nc4ccc(Cl)cc4)n3nc2CC(=O)c2ccc(OC)cc2)cc1	true (1)
COc1cc(C2c3cc4c(cc3[C@@H](Nc3ccc5c(c3)OCCO5)C3COC(=O)[C@H]23)OCO4)cc(OC)c1O (stereo partly specified)	true (1)

For this compound, is measured growth inhibition 80% or higher? CCOC(=S)SCc1nc2ccccc2[nH]1
true (1)

For this compound, is measured growth inhibition 80% or higher? CN(C)C(=S)/N=c1\ss/c(=N/C(=S)N(C)C)n1-c1ccc([N+](=O)[O-])cc1
false (0)

For this compound, is measured growth inhibition 80% or higher? CC(C)(C)CC(C)(C)c1ccc(O)c(O)c1
true (1)

For this compound, is measured growth inhibition 80% or higher? COC(=O)C12CCC(=O)C(C)=C1CCC(OC)(OC)C2 (stereo unspecified)
false (0)

For this compound, is measured growth inhibition 80% or higher? S=C(N/N=C1\C=Cc2ccccc2C1)N/N=C1\C=Cc2ccccc2C1
false (0)

For this compound, is measured growth inhibition 80% or higher? C[CH2][Sn]([CH2]C)([O]C(=O)c1c(F)cccc1F)[O][Sn]([CH2]C)([CH2]C)[O]C(=O)c1c(F)cccc1F
true (1)

For this compound, is measured growth inhibition 80% or higher? O=C(Cn1cnc2ccc([N+](=O)[O-])cc21)N1CCN(c2ccccc2)CC1
false (0)

For this compound, is measured growth inhibition 80% or higher? Nc1ccc(Cc2ccc(Cl)cc2)cc1
true (1)

For this compound, is measured growth inhibition 80% or higher? c1ccc(NCCSc2nc3ccccc3s2)cc1
false (0)

For this compound, is measured growth inhibition 80% or higher? CC(CO)(Nc1ccc([N+](=O)[O-])cc1[N+](=O)[O-])C(=O)O (stereo unspecified)
true (1)

For this compound, is measured growth inhibition 80% or higher? Cn1cc(NC(=O)c2cc(NC(=O)CCCCCCCCC(=O)Nc3cc(C(=O)Nc4cc(C(=O)NCCC(N)N)n(C)c4)n(C)c3)cn2C)cc1C(=O)NCCC(=N)N
true (1)

For this compound, is measured growth inhibition 80% or higher? O=C1C2=C(Nc3cc([N+](=O)[O-])ccc3N2)OC1c1c2ccccc2cc2ccccc12 (stereo unspecified)
true (1)

For this compound, is measured growth inhibition 80% or higher? CCCCCCCCC(=O)NCCN(CCN)C(=O)CCCCCCCC
true (1)

For this compound, is measured growth inhibition 80% or higher? CC(=O)OC1(C)C(=C(Cl)Cl)C2c3ccccc3C1c1ccccc12 (stereo unspecified)
true (1)

For this compound, is measured growth inhibition 80% or higher? Cc1cc(C(C)(CC(C)C)c2ccc(O)c(C)c2)ccc1O
true (1)
